Biological target: FGR (Homo sapiens)
Sequence (P09769 whole entry): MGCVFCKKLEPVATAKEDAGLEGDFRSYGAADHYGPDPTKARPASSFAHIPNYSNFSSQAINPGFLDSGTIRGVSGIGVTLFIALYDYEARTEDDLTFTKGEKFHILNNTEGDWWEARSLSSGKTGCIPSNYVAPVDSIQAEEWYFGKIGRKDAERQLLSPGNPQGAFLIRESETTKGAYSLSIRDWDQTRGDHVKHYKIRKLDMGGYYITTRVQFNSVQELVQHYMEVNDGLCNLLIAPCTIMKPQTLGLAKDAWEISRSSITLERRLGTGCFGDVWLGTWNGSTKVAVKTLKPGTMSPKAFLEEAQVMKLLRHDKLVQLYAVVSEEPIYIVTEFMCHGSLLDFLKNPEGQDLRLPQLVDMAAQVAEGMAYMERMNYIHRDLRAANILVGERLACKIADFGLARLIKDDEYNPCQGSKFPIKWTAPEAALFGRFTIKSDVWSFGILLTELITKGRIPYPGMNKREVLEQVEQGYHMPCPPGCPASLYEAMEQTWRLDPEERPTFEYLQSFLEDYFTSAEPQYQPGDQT
Test: Caliper mobility shift kinase inhibition assay, FGR
Conditions: recombinant kinase; enzyme 0.3 nM, ATP 50 μM, incubation 3 hr
pIC50: −log10 of the molar value.
This listing pairs compounds with measured pIC50.

Compound Smiles: Cc1cc(Nc2cc(NCCNC(=O)[C@H](C)N(C)C(=O)/C=C/CN(C)C)nc(Nc3ccc(CC#N)cc3)n2)n[nH]1
Test System: FGR (Homo sapiens)
pIC50: 7.00 to 8.00

For reference, reported pIC50 for Cc1c(C(=O)NCCNC(=O)[C@H](C)N(C)C(=O)/C=C/CN(C)C)c[nH]c1/C=C1\C(=O)Nc2ccc(F)cc21 stands at 6.00 to 7.00

====

Biological target: RON (Homo sapiens)
Sequence (Q04912 25-1400): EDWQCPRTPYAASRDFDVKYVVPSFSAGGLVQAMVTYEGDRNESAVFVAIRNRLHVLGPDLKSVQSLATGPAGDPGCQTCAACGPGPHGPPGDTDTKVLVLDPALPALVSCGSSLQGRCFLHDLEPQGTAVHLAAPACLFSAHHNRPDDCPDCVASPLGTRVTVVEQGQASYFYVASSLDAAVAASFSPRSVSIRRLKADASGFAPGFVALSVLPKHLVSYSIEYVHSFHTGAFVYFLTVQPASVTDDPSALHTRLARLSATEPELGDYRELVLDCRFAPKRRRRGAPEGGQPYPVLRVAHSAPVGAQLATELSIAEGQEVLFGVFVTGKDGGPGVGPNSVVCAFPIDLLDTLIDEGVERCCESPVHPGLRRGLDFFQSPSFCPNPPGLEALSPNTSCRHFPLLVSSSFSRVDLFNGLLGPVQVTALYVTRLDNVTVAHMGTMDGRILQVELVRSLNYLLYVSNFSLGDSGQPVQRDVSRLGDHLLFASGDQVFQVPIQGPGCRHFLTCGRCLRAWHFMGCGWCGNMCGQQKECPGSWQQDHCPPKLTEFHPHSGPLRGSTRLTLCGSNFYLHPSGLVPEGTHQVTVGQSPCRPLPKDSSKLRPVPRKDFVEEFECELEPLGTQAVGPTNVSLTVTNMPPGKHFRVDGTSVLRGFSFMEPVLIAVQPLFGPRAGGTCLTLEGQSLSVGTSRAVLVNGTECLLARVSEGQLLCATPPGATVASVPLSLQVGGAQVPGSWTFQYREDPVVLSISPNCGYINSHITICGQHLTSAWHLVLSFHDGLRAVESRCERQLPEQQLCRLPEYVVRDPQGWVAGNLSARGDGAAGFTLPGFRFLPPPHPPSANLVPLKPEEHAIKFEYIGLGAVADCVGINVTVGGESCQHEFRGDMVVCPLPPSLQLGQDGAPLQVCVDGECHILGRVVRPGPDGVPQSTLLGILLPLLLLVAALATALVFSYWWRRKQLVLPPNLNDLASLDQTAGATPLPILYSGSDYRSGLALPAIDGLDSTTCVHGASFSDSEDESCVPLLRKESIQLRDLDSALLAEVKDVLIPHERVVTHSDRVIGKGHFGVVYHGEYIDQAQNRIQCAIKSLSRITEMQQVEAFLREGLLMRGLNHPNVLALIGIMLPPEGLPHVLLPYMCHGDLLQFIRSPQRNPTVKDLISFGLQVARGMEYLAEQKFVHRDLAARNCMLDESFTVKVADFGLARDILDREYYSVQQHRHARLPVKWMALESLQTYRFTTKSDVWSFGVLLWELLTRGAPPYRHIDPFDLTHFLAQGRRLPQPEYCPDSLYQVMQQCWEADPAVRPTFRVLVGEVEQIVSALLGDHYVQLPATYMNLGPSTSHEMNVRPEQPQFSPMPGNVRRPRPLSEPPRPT
Assay: Caliper mobility shift kinase inhibition assay, RON
Conditions: recombinant kinase; enzyme 0.4 nM, ATP 20 μM, incubation 3 hr
IC50 values for the compounds below.

Compound: Cc1cc(Nc2cc(NCCNC(=O)[C@H](C)N(C)C(=O)/C=C/CN(C)C)nc(Nc3ccc(CC#N)cc3)n2)n[nH]1 [Compound 1]
Assay Value: 100 to 1000 nM

Proceed to the following item.
Record Cc1c(C(=O)NCCNC(=O)[C@H](C)N(C)C(=O)/C=C/CN(C)C)c[nH]c1/C=C1\C(=O)Nc2ccc(F)cc21 [Compound 26] . Reported IC50: 100 to 1000 nM
